Reference source: patent US6727076B2

Tested on: E. coli 287 (ATCC #11775)
Assay type: cell-based
endpoint-name: carbon source utilization result

C[C@H](N)C(=O)O ... positive
NCCCCN ... positive/negative
C[C@H](N)C(N)=O [alaninamide] ... positive
O=c1ccn([C@@H]2O[C@H](CO)[C@@H](O)[C@H]2O)c(=O)[nH]1 ... positive
O=C(O)/C=C(/CC(=O)O)C(=O)O [cis-aconitic acid] ... positive/negative
CC(O)CC(=O)O (stereo not drawn) [β-hydroxybutyric acid] ... negative
CCC(=O)C(=O)O ... positive
N[C@H](CO)C(=O)O ... positive
CCCC(=O)C(=O)O ... negative
O=C[C@H](O)[C@@H](O)[C@H](O)[C@H](O)COP(=O)(O)O [Glucose-6-phosphate] ... positive

Challenge: What does the record list as carbon source utilization result for OC[C@@H](O)C(O)[C@H](O)CO ?
Response given: negative

Challenge: What does the record list as carbon source utilization result for C[C@H](O)[C@H](O)[C@@H](O)[C@@H](O)C=O ?
Response given: positive

Challenge: What does the record list as carbon source utilization result for C[N+](C)(C)CC(O)CC(=O)[O-] (racemic) ?
Response given: negative

Challenge: What does the record list as carbon source utilization result for OC[C@H]1O[C@H](O[C@H]2O[C@H](CO)[C@@H](O)[C@H](O)[C@H]2O)[C@H](O)[C@@H](O)[C@@H]1O ?
Response given: positive

Challenge: What does the record list as carbon source utilization result for COC1OC(CO)C(O)C(O)C1O (stereo not drawn) [β-methyl glucoside] ?
Response given: positive

Challenge: What does the record list as carbon source utilization result for N[C@@H](CO)C(=O)O ?
Response given: positive

Challenge: What does the record list as carbon source utilization result for CC(O)C(=O)O (racemic) ?
Response given: positive

----------
System: E. coli strain 14443 (MG1655 (FB426)); further: key: '+' indicates that the organism tested was capable of utilizing the carbon source listed; '−' indicates that the organism tested was not capable of utilizing the carbon source listed; 'w' indicates weak positive reactions
Assay type: cell-based
endpoint-name: carbon source utilization

COC1OC(CO)C(O)C(O)C1O (stereo not drawn) [β-methyl glucoside] ... +
O=C(O)CC(O)C(=O)O (racemic) [D,L-malic acid] ... +
O=C1O[C@H]([C@@H](O)CO)[C@@H](O)[C@@H]1O [L-galactonic acid γ-lactone] ... +
OC[C@H]1O[C@H](OCC2O[C@@H](O)[C@H](O)[C@@H](O)[C@@H]2O)[C@H](O)[C@@H](O)[C@H]1O (stereo partly drawn) [D-melibiose] ... +
O=C(O)C[C@@H](O)C(=O)O [D-malic acid] ... +

Challenge: What does the record list as carbon source utilization for OC[C@@H](O)[C@H](O)[C@H](O)[C@@H](O)CO [Dulcitol] ?
Response given: −

Challenge: What does the record list as carbon source utilization for O=P(O)(O)O[C@H]1O[C@H](CO)[C@@H](O)[C@H](O)[C@H]1O [Glucose-1-phosphate] ?
Response given: +

Challenge: What does the record list as carbon source utilization for OC[C@H]1O[C@H](O[C@H]2O[C@H](CO)[C@@H](O)[C@H](O)[C@H]2O)[C@H](O)[C@@H](O)[C@@H]1O [D-trehalose] ?
Response given: +

Challenge: What does the record list as carbon source utilization for O=P(O)(O)OCC(O)CO (racemic) [D,L-α-glycerol phosphate] ?
Response given: −

----------
Test system: E. coli strain 14444 (MG1655 xylA); further: key: '+' indicates that the organism tested was capable of utilizing the carbon source listed; '−' indicates that the organism tested was not capable of utilizing the carbon source listed; 'w' indicates weak positive reactions
Assay type: cell-based
endpoint-name: carbon source utilization

COC1OC(CO)C(O)C(O)C1O (stereo not drawn) [β-methyl glucoside] ... +
O=P(O)(O)O[C@H]1O[C@H](CO)[C@@H](O)[C@H](O)[C@H]1O [Glucose-1-phosphate] ... +
O=C(O)CC(O)C(=O)O (racemic) [D,L-malic acid] ... +
O=P(O)(O)OCC(O)CO (racemic) [D,L-α-glycerol phosphate] ... −
OC[C@H]1O[C@H](OCC2O[C@@H](O)[C@H](O)[C@@H](O)[C@@H]2O)[C@H](O)[C@@H](O)[C@H]1O (stereo partly drawn) [D-melibiose] ... +

Challenge: What does the record list as carbon source utilization for OC[C@@H](O)[C@H](O)[C@H](O)[C@@H](O)CO [Dulcitol] ?
Response given: −

Challenge: What does the record list as carbon source utilization for O=C(O)C[C@H](O)C(=O)O [L-malic acid] ?
Response given: +

Challenge: What does the record list as carbon source utilization for CO[C@H]1O[C@H](CO)[C@H](O)[C@H](O)[C@H]1O [α-methyl galactoside] ?
Response given: +

Challenge: What does the record list as carbon source utilization for O=C(O)C[C@@H](O)C(=O)O [D-malic acid] ?
Response given: +
